tested on: 2Sp-muMax20 (muMax20 with two 2,6-bis(methyl)pyridine Cys staples); assay: PBM 8-mer E-score (E-score (rank enrichment, -0.5 to 0.5)); higher = stronger preferential binding
Over roughly 33,000 sequences, “E-score (rank enrichment, -0.5 to 0.5)” has its median near -0.0043; the highest 2% begin near 0.24. Shown is part of a subset that was picked to be rich in the highest values.
Readout: PBM 8-mer E-score

1) AGCATTAT : 0.266
2) TCCCATAA : 0.0959
3) TCCCTTCA : 0.107
4) ATGCGCAG : 0.0186
5) ACCCTCCA : 0.168
6) GCCCTCCA : -0.00293
7) ATGCGCAA : 0.184
8) GTGCGCAA : -0.0392
9) GAATGACA : -0.0425
10) ACGTGTAT : 0.336
11) CGAATGCA : 0.32
12) AGCATTAG : 0.0579
13) TTGCGCAA : 0.344
14) AGCCGGTG : -0.254
15) CAGCACTC : 0.0109
16) CCACACAA : 0.0212
17) CATAATGA : 0.165
18) CACATATC : 0.223
19) TAAATGTA : 0.281
20) GACATATA : 0.12
21) TCACACAA : 0.238
22) ATCCAGGC : -0.01
23) CATTCGCA : 0.0276
24) AATAATGT : 0.241
25) CCCCTTCC : -0.00527
26) ATGCGCAT : 0.335
27) GCTGTTGA : -0.119
28) ACCGCATG : 0.132
29) ATCTAAGA : -0.0722
30) GTATGAGA : 0.124
31) CCCCACAG : -0.0544
32) ACACACAA : 0.0759
33) CTCGTTAA : 0.0752
34) CCCCACAC : 0.229
35) CTACGACA : -0.0631
36) CTATGACA : 0.106
37) AAATACGT : 0.112
38) ATGAGCAG : 0.0835
39) AGGGTGGG : 0.245
40) AACTCAAA : 0.172
41) CGCATTAA : 0.0861
42) CCCCTCCG : -0.0068
43) AACGGCCA : -0.0961
44) GGTTCTAA : -0.026
45) CACATATA : 0.328

* * *

tested on: 2Sp-muMax20 (muMax20 with two 2,6-bis(methyl)pyridine Cys staples); assay: PBM 8-mer E-score (E-score (rank enrichment, -0.5 to 0.5)); higher = stronger preferential binding
Over roughly 33,000 sequences, “E-score (rank enrichment, -0.5 to 0.5)” has its median near -0.0043; the highest 2% begin near 0.24. What follows is part of a selection rich in the highest values, with near analogues and random picks from the rest.
Each entry below carries its recorded PBM 8-mer E-score.
Readout: PBM 8-mer E-score

1) TAGGTCCA : -0.13
2) TGGGAGAA : 0.0249
3) GTATCTCA : 0.17
4) CTATGATA : 0.0216
5) ATATGATG : 0.181
6) GTATGATA : 0.342
7) ACGTGTAG : 0.0238
8) ACGTGTGA : 0.113
9) AATAATGA : 0.238
10) AACACACT : 0.249
11) AATAATGC : 0.143
12) CGAATGCC : -0.0493
13) AATAATGG : 0.126
14) CCCCATAA : 0.254
15) ACGTGTCA : 0.139
16) AAACAATA : 0.101
17) GATCTTCC : -0.219
18) TAATGACA : 0.259
19) ATCATTAA : 0.0844
20) AACGGCCC : -0.372
21) CCCTCCCC : 0.142
22) CCCCTCCC : 0.311
23) ACGTGTCG : 0.18
24) GCTGAGAC : -0.0936
25) TGCATTAA : 0.285
26) ACGTGTGG : 0.156
27) ACGTGTTA : 0.352
28) ACCCTCCC : 0.26
29) AGAATGCA : 0.0925
30) GGTTACTA : -0.067
31) CCGTGTTA : 0.0643
32) ATACCAGG : -0.136
33) GAATACGC : 0.0401
34) AGAAACCG : -0.0327
35) GCATGATA : 0.226
36) AGCATTAC : -0.0132
37) ATCATATA : 0.254
38) ATGCGCAC : 0.195
39) ACGTGTCT : 0.26
40) ATCATATG : 0.138
41) AACGGCCT : 0.275
42) AACACACG : 0.0266
43) CCCCTCCA : 0.236
44) AAAATGCT : 0.263
45) AAATACGC : 0.236
46) ATCTCACA : 0.141

* * *

test system: 2Sp-muMax20 (muMax20 with two 2,6-bis(methyl)pyridine Cys staples); experiment: PBM 8-mer E-score (E-score (rank enrichment, -0.5 to 0.5)); higher = stronger preferential binding
The full ranking holds about 33,000 sequences; the median of “E-score (rank enrichment, -0.5 to 0.5)” is about -0.0043, and the highest 2% start at about 0.24. Many of the other results were omitted from the sample, so the highest values are more common in it than they were.
Readout: PBM 8-mer E-score

1) CTCTTCCC : -0.062
2) TATTATCA : 0.122
3) GCCCGCCA : -0.0439
4) ACTTGATG : 0.0152
5) ACTACTAG : 0.261
6) AATTGATC : 0.0176
7) TAAATAGA : 0.000425
8) TGACTACA : 0.0909
9) CCGTCGAG : -0.0626
10) AATTGATA : 0.252
11) CATTATAA : 0.246
12) ACCCCGCC : 0.284
13) GCCCGCCC : 0.16
14) TCTTATAA : 0.193
15) ATGCGCCG : -0.102
16) CATTATAC : 0.218
17) CATACTAC : 0.0746
18) GTCAAATA : 0.163
19) GCAGCGAA : -0.157
20) CTTTTCAC : 0.287
21) ATTTTGCA : 0.143
22) AATTATAG : 0.148
23) ACGCACGT : 0.277
24) CCGGATCA : -0.0752
25) ACGAACTA : -0.0202
26) TATCGACA : -0.0261
27) GGCGCTAA : -0.136
28) CGGTTACG : -0.19
29) TATTCTAA : 0.246
30) CATTATAG : 0.0091
31) CGGCTTCC : -0.166
32) ACTACTAT : 0.146
33) ATTACTAG : -0.00656
34) ATTACTAC : 0.256
35) CAAAAGTG : 0.11
36) CATACTAA : 0.145
37) CCTACTAG : 0.107
38) CCCCGCCG : 0.131
39) TATTATAA : 0.244
40) ACGCACAT : 0.24
41) CCCCGCCA : 0.246
42) ACGCACAA : 0.0234
43) CATACTAG : 0.243
44) ACCCGCCC : 0.37
45) GGCCGTAC : 0.0557
46) TCCCGCCA : -0.0738

* * *

test system: 2Sp-muMax20 (muMax20 with two 2,6-bis(methyl)pyridine Cys staples); test: PBM 8-mer E-score (E-score (rank enrichment, -0.5 to 0.5)); higher = stronger preferential binding
The full ranking holds about 33,000 sequences; the median of “E-score (rank enrichment, -0.5 to 0.5)” is about -0.0043, and the highest 2% start at about 0.24. The sample as a whole holds a higher share of the highest values than the screen did.
Known PBM 8-mer E-score of a selection of sequences
Readout: PBM 8-mer E-score

1) CTCAAACA : -0.00491
2) GGGTGGGA : 0.297
3) AGGTGCGC : -0.139
4) ACACGTAC : -0.0036
5) ATATAACA : 0.184
6) CAATTGGC : 0.244
7) AAACGTGG : 0.0452
8) ACAAAGCT : 0.00391
9) AGGTGGGA : 0.0626
10) CTTTCCCA : -0.0651
11) ATTGTCTC : -0.126
12) AAAATTCC : 0.0483
13) CGACTCCC : -0.0206
14) AGAGTTGC : -0.124
15) CGTGGGTA : 0.0577
16) AAAATAAA : 0.103
17) CGTTAACA : 0.0471
18) AACGCGCG : 0.263
19) ACCACATA : 0.0521
20) GTATCATA : 0.255
21) ATTGTCTA : 0.269
22) ACACGTGA : 0.412
23) ATTAGTCC : 0.0528
24) AAGCTGAT : 0.294
25) AACGCGCA : 0.0173
26) ATTTGGCA : -0.0164
27) CACCCTCG : 0.0708
28) AGCACATA : 0.0303
29) ACACGTGC : 0.407
30) AAGCTTAT : 0.25
31) GATAGCAC : 0.151
32) CGACACTC : -0.159
33) CAGTAGCG : -0.205
34) CATAGCAC : 0.301
35) CCTGTATA : 0.0769
36) TCACGTAA : -0.0172
37) ATCAAGCA : -0.065
38) CCACACAC : 0.0649
39) GAGTAAGC : -0.0367
40) GATGGGTA : 0.249
41) TGTACAAA : 0.244
42) AAGCTTAA : -0.0812
43) GGCCTAGA : -0.101
44) AATATAAT : 0.22
45) ACTGTATA : 0.213
46) ACCAGTAC : -0.126
47) ACCACATC : -0.0798
48) CTTGTATA : 0.17
49) ATAAAACG : 0.145
50) CCCATTCC : -0.0919
51) TGTTAACA : 0.275
52) CACGCTCA : 0.0559
53) ATCACATG : 0.305
54) CCAGCAGG : -0.054
55) ACTATAAA : 0.115
56) AAGCTGAC : -0.0135
57) ATAAAACA : 0.244
58) AGACGTGC : -0.145
59) AAAAAACT : 0.0474
60) CATATAAG : 0.168
61) CATATAAC : 0.228
62) AATATAAC : 0.203
63) CGTACACG : 0.134
64) AGACACAC : 0.158
65) CAGGCATA : 0.0998
66) ACCACATG : 0.318
67) ATATAACC : 0.134
68) ATTGTACA : 0.26
69) ATTGTATA : 0.242
70) AATAACAA : 0.259
71) TGTACACA : 0.283
72) GCTGTATA : 0.25
73) ATTGTACC : 0.0323
74) AATAAAAT : 0.103
75) AGCACATC : 0.0563
76) TGTATACA : 0.315
77) TCACGTGA : 0.438
78) GGTGGGTA : 0.249
79) GGTACAAA : 0.0427
80) AGTTAACA : 0.145
81) ATCAAACA : 0.26
82) GTATCAGA : -0.0699
83) ATATAGGG : 0.0694
84) GTAAAACA : 0.174
85) CAATTGGG : 0.136
86) ATCACATA : 0.187
87) CATATAAA : 0.323
88) CATTACCC : 0.0244
89) ACTCCTAG : -0.146
90) AGCACATG : 0.263
91) AAATAACG : 0.289
